target: Nluc-H1R (Homo sapiens); assay: NanoBRET saturation binding assay on Nluc-H1R expressing HEK293T cells; parameters: expressed in transfected cells; details: saturation binding curves, whole HEK293T cells
Sequence (P35367 whole entry): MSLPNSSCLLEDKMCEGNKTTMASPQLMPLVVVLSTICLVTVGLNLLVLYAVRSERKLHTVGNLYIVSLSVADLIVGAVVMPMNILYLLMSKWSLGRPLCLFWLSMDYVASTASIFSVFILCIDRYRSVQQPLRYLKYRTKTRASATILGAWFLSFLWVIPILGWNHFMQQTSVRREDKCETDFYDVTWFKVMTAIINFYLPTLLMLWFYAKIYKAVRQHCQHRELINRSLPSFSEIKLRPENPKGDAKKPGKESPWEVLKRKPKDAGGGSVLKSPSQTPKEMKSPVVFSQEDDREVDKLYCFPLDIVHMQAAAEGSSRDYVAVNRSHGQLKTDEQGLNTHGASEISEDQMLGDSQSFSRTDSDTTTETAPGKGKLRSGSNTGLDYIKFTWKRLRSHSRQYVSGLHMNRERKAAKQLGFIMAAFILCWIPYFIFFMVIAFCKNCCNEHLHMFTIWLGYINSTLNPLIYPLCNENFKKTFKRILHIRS
Square brackets hold non-standard residues; d marks the D form. Side chains are listed from the residue outwards. Peptide text beside a SMILES is read from it. * marks the point of attachment. X1 = O=C(COc1ccc(/C=C/C2=[N+]3C(=Cc4ccc(-c5cccs5)n4[B-]3(F)F)C=C2)cc1)*; Propanoyl(3-Pip(4-O-2-BnPh)) = O=C(CCN1CCC(Oc2ccccc2Cc2ccccc2)CC1)*; X3 = Cc1cc(C)n2c1C=C1C=CC(/C=C/c3ccc(OCC(=O)*)cc3)=[N+]1[B-]2(F)F; BODIPY(FL) = CC1=CC(C)=[N+]2C1=Cc1ccc(CCC(=O)*)n1[B-]2(F)F; Ahx = NCCCCCC(=O)O; βAla = NCCC(=O)O
hey, just use Criterion met if measured Kd is less than 1000 nM, otherwise Criterion not met

MOLECULE	CLASS
Cc1cc(C)n2c1C=C1C=CC(CCC(=O)NCCCCCC(=O)NCCCC[C@H](NC(=O)CCNC(=O)[C@H](C)NC(=O)[C@H](C)NC(=O)[C@H](Cc3ccccc3)NC(=O)CCN3CCC(Oc4ccccc4Cc4ccccc4)CC3)C(N)=O)=[N+]1[B-]2(F)F [Compound 39e] ({Propanoyl(3-Pip(4-O-2-BnPh))}-FAA[βAla]K([Ahx-BODIPY(FL)])-NH2)	Criterion not met
CC(C)[C@H](NC(=O)CCN1CCC(Oc2ccccc2Cc2ccccc2)CC1)C(=O)N[C@@H](CO)C(=O)N[C@@H](CC(N)=O)C(=O)NCCC(=O)N[C@@H](CCCn1cc(COc2ccc(/C=C/C3=[N+]4C(=Cc5ccc(-c6cccs6)n5[B-]4(F)F)C=C3)cc2)nn1)C(N)=O [Compound 28a]	Criterion met
Cc1cc(C)n2c1C=C1C=CC(CCC(=O)NCCCC[C@H](NC(=O)CCNC(=O)[C@H](CC(N)=O)NC(=O)[C@H](CO)NC(=O)[C@@H](NC(=O)CCN3CCC(Oc4ccccc4Cc4ccccc4)CC3)C(C)C)C(N)=O)=[N+]1[B-]2(F)F [Compound 38d] ({Propanoyl(3-Pip(4-O-2-BnPh))}-VSN[βAla]K(BODIPY(FL))-NH2)	Criterion not met
Cc1cc(C)n2c1C=C1C=CC(CCC(=O)NCCCCCC(=O)NCCCC[C@H](NC(=O)CCNC(=O)[C@H](CC(N)=O)NC(=O)[C@H](CO)NC(=O)[C@@H](NC(=O)CCN3CCC(Oc4ccccc4Cc4ccccc4)CC3)C(C)C)C(N)=O)=[N+]1[B-]2(F)F [Compound 38e] ({Propanoyl(3-Pip(4-O-2-BnPh))}-VSN[βAla]K([Ahx-BODIPY(FL)])-NH2)	Criterion not met
C[C@H](NC(=O)CCN1CCC(Oc2ccccc2Cc2ccccc2)CC1)C(=O)N[C@@H](C)C(=O)N[C@@H](C)C(=O)N[C@@H](Cn1cc(COc2ccc(/C=C/C3=[N+]4C(=Cc5ccc(-c6cccs6)n5[B-]4(F)F)C=C3)cc2)nn1)C(N)=O [Compound 22b]	Criterion met
C[C@@H](O)[C@H](NC(=O)CCN1CCC(Oc2ccccc2Cc2ccccc2)CC1)C(=O)N[C@@H](CO)C(=O)N[C@@H](CC(N)=O)C(=O)NCCC(=O)N[C@@H](CCCCNC(=O)COc1ccc(/C=C/C2=[N+]3C(=Cc4ccc(-c5cccs5)n4[B-]3(F)F)C=C2)cc1)C(N)=O [Compound 31c] ({Propanoyl(3-Pip(4-O-2-BnPh))}-TSN[βAla]K(X1)-NH2)	Criterion met
CC(C)[C@H](NC(=O)CCN1CCC(Oc2ccccc2Cc2ccccc2)CC1)C(=O)N[C@@H](C)C(=O)N[C@@H](CC(N)=O)C(=O)NCCC(=O)N[C@@H](CCCCNC(=O)COc1ccc(/C=C/C2=[N+]3C(=Cc4ccc(-c5cccs5)n4[B-]3(F)F)C=C2)cc1)C(N)=O [Compound 31b] ({Propanoyl(3-Pip(4-O-2-BnPh))}-VAN[βAla]K(X1)-NH2)	Criterion met
CC(C)[C@H](NC(=O)CCN1CCC(Oc2ccccc2Cc2ccccc2)CC1)C(=O)N[C@@H](CO)C(=O)N[C@@H](CC(N)=O)C(=O)NCCC(=O)N[C@@H](CCCCNC(=O)CCCCC[N+]1=C(/C=C/C=C/C=C2/N(C)c3ccc(S(=O)(=O)[O-])cc3C2(C)C)C(C)(C)c2cc(S(=O)(=O)O)ccc21)C(N)=O [Compound 38f]	Criterion not met
Cc1cc(C)n2c1C=C1C=CC(/C=C/c3ccc(OCC(=O)NCCCC[C@H](NC(=O)CCNC(=O)[C@H](C)NC(=O)[C@H](C)NC(=O)[C@H](Cc4ccccc4)NC(=O)CCN4CCC(Oc5ccccc5Cc5ccccc5)CC4)C(N)=O)cc3)=[N+]1[B-]2(F)F [Compound 39b] ({Propanoyl(3-Pip(4-O-2-BnPh))}-FAA[βAla]K(X3)-NH2)	Criterion met
Cc1cc(C)n2c1C=C1C=CC(CCC(=O)NCCCC[C@H](NC(=O)CCNC(=O)[C@H](C)NC(=O)[C@H](C)NC(=O)[C@H](Cc3ccccc3)NC(=O)CCN3CCC(Oc4ccccc4Cc4ccccc4)CC3)C(N)=O)=[N+]1[B-]2(F)F [Compound 39d] ({Propanoyl(3-Pip(4-O-2-BnPh))}-FAA[βAla]K(BODIPY(FL))-NH2)	Criterion not met
C[C@H](NC(=O)[C@H](C)NC(=O)[C@H](Cc1ccccc1)NC(=O)CCN1CCC(Oc2ccccc2Cc2ccccc2)CC1)C(=O)NCCC(=O)N[C@@H](CCCCNC(=O)CCCCC[N+]1=C(/C=C/C=C/C=C2/N(C)c3ccc(S(=O)(=O)[O-])cc3C2(C)C)C(C)(C)c2cc(S(=O)(=O)O)ccc21)C(N)=O [Compound 39f]	Criterion not met
C[C@H](NC(=O)[C@H](C)NC(=O)[C@H](Cc1ccccc1)NC(=O)CCN1CCC(Oc2ccccc2Cc2ccccc2)CC1)C(=O)NCCC(=O)N[C@@H](CCCCNC(=O)CCCCCNC(=O)COc1ccc(/C=C/C2=[N+]3C(=Cc4ccc(-c5cccs5)n4[B-]3(F)F)C=C2)cc1)C(N)=O [Compound 39a] ({Propanoyl(3-Pip(4-O-2-BnPh))}-FAA[βAla]K([Ahx-X1])-NH2)	Criterion met

* * *

This section presents compounds with their documented pKi values.
target: UniProt:P35367; assay: NanoBRET competition binding assay (displacement of 1) on Nluc-H1R expressing HEK293T cells; conditions: displacement of 1 (25 nM, KD = 8 nM), whole HEK293T cells, Cheng–Prusoff; mean ± SEM, three experiments
Square brackets hold non-standard residues; d marks the D form. Peptide text beside a SMILES is read from it. * marks the point of attachment. Propanoyl(3-Pip(4-O-2-BnPh)) = O=C(CCN1CCC(Oc2ccccc2Cc2ccccc2)CC1)*

COMPOUND	pKi
CC(C)[C@H](NC(=O)CCN1CCC(Oc2ccccc2Cc2ccccc2)CC1)C(=O)N[C@@H](CC(N)=O)C(=O)N[C@@H](C)C(=O)N[C@H](Cc1ccccc1)C(N)=O [Compound 9f] ({Propanoyl(3-Pip(4-O-2-BnPh))}-VNA[dF]-NH2)	6.08
C[C@H](NC(=O)CCN1CCC(Oc2ccccc2Cc2ccccc2)CC1)C(=O)N[C@@H](C)C(=O)N[C@@H](C)C(=O)N[C@H](Cc1ccccc1)C(N)=O [Compound 8a] ({Propanoyl(3-Pip(4-O-2-BnPh))}-AAA[dF]-NH2)	6.04

* * *

molecular target: Nluc-H1R (Homo sapiens); experiment: NanoBRET saturation binding assay on Nluc-H1R expressing HEK293T cells; design: expressed in transfected cells; conditions: saturation binding curves, whole HEK293T cells
pKd: −log10 of the molar value. Square brackets hold non-standard residues; d marks the D form. Peptide text beside a SMILES is read from it. * marks the point of attachment. X1 = O=C(COc1ccc(/C=C/C2=[N+]3C(=Cc4ccc(-c5cccs5)n4[B-]3(F)F)C=C2)cc1)*; Propanoyl(3-Pip(4-O-2-BnPh)) = O=C(CCN1CCC(Oc2ccccc2Cc2ccccc2)CC1)*; βAla = NCCC(=O)O
TEST_READOUT: pKd

COMPOUND	NUMERIC_VALUE
CC(C)[C@H](NC(=O)CCN1CCC(Oc2ccccc2Cc2ccccc2)CC1)C(=O)N[C@@H](CO)C(=O)N[C@@H](Cc1ccc(O)cc1)C(=O)NCCC(=O)N[C@@H](CCCCNC(=O)COc1ccc(/C=C/C2=[N+]3C(=Cc4ccc(-c5cccs5)n4[B-]3(F)F)C=C2)cc1)C(N)=O [Compound 31e] ({Propanoyl(3-Pip(4-O-2-BnPh))}-VSY[βAla]K(X1)-NH2)	7.80
C[C@H](NC(=O)[C@@H](NC(=O)CCN1CCC(Oc2ccccc2Cc2ccccc2)CC1)[C@@H](C)O)C(=O)N[C@@H](Cc1ccc(O)cc1)C(=O)NCCC(=O)N[C@@H](CCCCNC(=O)COc1ccc(/C=C/C2=[N+]3C(=Cc4ccc(-c5cccs5)n4[B-]3(F)F)C=C2)cc1)C(N)=O [Compound 31h] ({Propanoyl(3-Pip(4-O-2-BnPh))}-TAY[βAla]K(X1)-NH2)	8.22
C[C@H](NC(=O)CCN1CCC(Oc2ccccc2Cc2ccccc2)CC1)C(=O)N[C@@H](C)C(=O)N[C@@H](C)C(=O)NCCC(=O)N[C@@H](CCCn1cc(COc2ccc(/C=C/C3=[N+]4C(=Cc5ccc(-c6cccs6)n5[B-]4(F)F)C=C3)cc2)nn1)C(N)=O [Compound 28b]	7.85
